Test system: Fusarium oxysporum
Procedure Details: Antifungal activity against Fusarium oxysporum at 100 ug/mL
Assay type: functional
Protocol Conditions: read-out: IZ
Readout: zone of inhibition at 100 µg/mL (mm)
Write down the numeric answer in mm and omit the unit.

// lookup zone of inhibition at 100 µg/mL for O=C(Cn1ncc2cc([N+](=O)[O-])ccc21)NN1C(=O)CSC1c1ccccc1[N+](=O)[O-] (stereo unspecified) 27

If you can, please state the reported zone of inhibition at 100 µg/mL value of O=C(Cn1ncc2cc([N+](=O)[O-])ccc21)N/N=C/c1ccccc1 . 17.4

Would you mind telling me what zone of inhibition at 100 µg/mL value was observed for O=C(Cn1ncc2cc([N+](=O)[O-])ccc21)NN1C(=O)CSC1c1cccc([N+](=O)[O-])c1 (stereo unspecified) ? 28.4

# get_value(readout='zone of inhibition at 100 µg/mL', item= O=C(Cn1ncc2cc([N+](=O)[O-])ccc21)NN1C(=O)CSC1c1ccccc1Cl (stereo unspecified) ) 25

// zone of inhibition at 100 µg/mL lookup, key: O=C(Cn1ncc2cc([N+](=O)[O-])ccc21)NN1C(=O)CSC1c1ccc(Cl)cc1 (stereo unspecified) 25.8

Request the reported zone of inhibition at 100 µg/mL associated with O=C(Cn1ncc2cc([N+](=O)[O-])ccc21)N/N=C/c1ccccc1O 18.5

###

System: Aspergillus flavus
Procedure Details: Antifungal activity against Aspergillus flavus at 50 ug/mL
Assay type: functional
Protocol Conditions: read-out: IZ
Readout: zone of inhibition at 50 µg/mL (mm)
Report only the number, with the unit mm understood.

Recorded zone of inhibition at 50 µg/mL for Cc1ccc(/C=N/NC(=O)Cn2ncc3cc([N+](=O)[O-])ccc32)cc1 , please? 8

What value of measured zone of inhibition at 50 µg/mL is listed for O=C(Cn1ncc2cc([N+](=O)[O-])ccc21)N/N=C/c1cccc(Br)c1 ? 17.8

What measured zone of inhibition at 50 µg/mL goes with O=C(Cn1ncc2cc([N+](=O)[O-])ccc21)N/N=C/c1ccccc1[N+](=O)[O-] ? 21.4

I am curious: what zone of inhibition at 50 µg/mL value has been reported for O=C(Cn1ncc2cc([N+](=O)[O-])ccc21)NN1C(=O)CSC1c1ccccc1[N+](=O)[O-] (stereo not drawn) ? 23.6

I have this compound here, COC1=CC(=O)C[C@@H](C)[C@]12Oc1c(Cl)c(OC)cc(OC)c1C2=O , and I need its recorded zone of inhibition at 50 µg/mL. 27

I have this compound here, O=C(Cn1ncc2cc([N+](=O)[O-])ccc21)N/N=C/c1ccccc1Cl , and I need its recorded zone of inhibition at 50 µg/mL. 19

Query (compound): NNC(=O)Cn1ncc2cc([N+](=O)[O-])ccc21 ; field requested: zone of inhibition at 50 µg/mL 7

Which zone of inhibition at 50 µg/mL value is on record for O=C(Cn1ncc2cc([N+](=O)[O-])ccc21)NN1C(=O)CSC1c1ccccc1 (stereo not drawn) ? 16

May I ask what zone of inhibition at 50 µg/mL has been recorded for CN(C)c1ccc(C2SCC(=O)N2NC(=O)Cn2ncc3cc([N+](=O)[O-])ccc32)cc1 (stereo not drawn) ? 12.6

Which zone of inhibition at 50 µg/mL reading was recorded for the compound COc1ccc(/C=N/NC(=O)Cn2ncc3cc([N+](=O)[O-])ccc32)cc1 ? 12.2

Returns the measured zone of inhibition at 50 µg/mL for the input compound. Input: COc1ccccc1C1SCC(=O)N1NC(=O)Cn1ncc2cc([N+](=O)[O-])ccc21 (stereo not drawn) 13.9

zone of inhibition at 50 µg/mL for COc1ccc(C2SCC(=O)N2NC(=O)Cn2ncc3cc([N+](=O)[O-])ccc32)cc1 (stereo not drawn) ? 14.8

If you can, please state the reported zone of inhibition at 50 µg/mL value of O=C(Cn1ncc2cc([N+](=O)[O-])ccc21)N/N=C/c1cccc([N+](=O)[O-])c1 . 22.5

What does the data say about its zone of inhibition at 50 µg/mL? Entry: O=C(Cn1ncc2cc([N+](=O)[O-])ccc21)NN1C(=O)CSC1c1ccc(Cl)cc1 (stereo not drawn) 22.3

# input compound: O=C(Cn1ncc2cc([N+](=O)[O-])ccc21)N/N=C/c1ccccc1 ; wanted: its zone of inhibition at 50 µg/mL 13.6

Report zone of inhibition at 50 µg/mL for O=C(Cn1ncc2cc([N+](=O)[O-])ccc21)NN1C(=O)CSC1c1cccc([N+](=O)[O-])c1 (stereo not drawn) please. 24.7

Return reported zone of inhibition at 50 µg/mL; argument: COc1ccccc1/C=N/NC(=O)Cn1ncc2cc([N+](=O)[O-])ccc21 11

// query zone of inhibition at 50 µg/mL value for entry CN(C)c1ccc(/C=N/NC(=O)Cn2ncc3cc([N+](=O)[O-])ccc32)cc1 9.5
